Biological target: human β-Secretase (soluble part, AA 1-AA 460, sBACE-Fc) (Homo sapiens)
Construct: The soluble part of the human β-Secretase (AA 1-AA 460) was cloned; made in house
Sequence (P56817 22-460): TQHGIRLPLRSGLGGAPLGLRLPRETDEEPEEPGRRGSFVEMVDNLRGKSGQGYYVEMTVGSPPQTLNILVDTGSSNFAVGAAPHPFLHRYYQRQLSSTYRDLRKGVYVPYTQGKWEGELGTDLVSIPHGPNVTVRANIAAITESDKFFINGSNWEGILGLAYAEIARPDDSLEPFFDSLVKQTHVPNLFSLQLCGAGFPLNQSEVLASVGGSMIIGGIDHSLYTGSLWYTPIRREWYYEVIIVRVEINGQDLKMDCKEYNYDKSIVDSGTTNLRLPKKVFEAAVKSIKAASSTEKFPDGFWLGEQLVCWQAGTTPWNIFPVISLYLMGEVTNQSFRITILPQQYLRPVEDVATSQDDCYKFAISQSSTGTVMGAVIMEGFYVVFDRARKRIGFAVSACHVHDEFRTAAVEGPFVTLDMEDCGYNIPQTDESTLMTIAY
Assay: TR-FRET assay (β-secretase enzyme)
Type: biochemical
Where a name gives a salt, the structure may show the parent alone.
Mark criterion met only when IC50 stays strictly below 700 nM. Values equal to the cut-off are criterion not met.

Check if IC50 falls below 700 nM for COc1ccc(F)c(-c2cccc(C3(c4ccc(S(F)(F)(F)(F)F)cc4)N=C(N)N(C)C3=O)c2)c1F (stereo not shown) [Example 47] .
criterion met

Hello, is IC50 of the following compound strictly smaller than 700 nM? CN1C(=O)C(c2ccc(S(F)(F)(F)(F)F)cc2)(c2cccc(-c3cncc(C#N)c3)c2)N=C1N (stereo not shown) [Example 45]
criterion met

Take the compound COc1cccc(-c2cccc(C3(c4ccc(S(F)(F)(F)(F)F)cc4)N=C(N)N(C)C3=O)c2)c1F (single isomer, unassigned) [37 isomer 2] and say whether its IC50 is less than 700 nM.
criterion not met

Consider CN1C(=O)C(c2ccc(S(F)(F)(F)(F)F)cc2)(c2cccc(-c3cncnc3)c2)N=C1N (stereo not shown) [Example 32] . Does its IC50 lie strictly below 700 nM?
criterion met

# strict comparison: is reported IC50 < 700 nM? input = COc1cccc(-c2cc(C3(c4ccc(N=S(C)(C)=O)cc4)N=C(N)N(C)C3=O)ccc2F)c1 (stereo not shown) [Example 5, hydrochloride]
criterion not met

In plain terms, does CN1C(=O)C(c2ccc(S(F)(F)(F)(F)F)cc2)(c2cccc(-c3cccnc3)c2)N=C1N (stereo not shown) [Example 33] come in under 700 nM for IC50?
criterion met

----------
Molecular target: human β-Secretase (soluble part, AA 1-AA 460, sBACE-Fc) (Homo sapiens)
Construct: The soluble part of the human β-Secretase (AA 1-AA 460) was cloned; made in house
Assay: TR-FRET assay (β-secretase enzyme)
Format: biochemical
Readout Label: IC50
# output: numeric value plus its unit

Sure, the documented IC50 for CN1C(=O)C(c2ccc(S(F)(F)(F)(F)F)cc2)(c2ccc(F)c(-c3cccnc3F)c2)N=C1N (stereo not shown) [Example 28] is 69 nM

What the record says about CN1C(=O)C(c2ccc(S(F)(F)(F)(F)F)cc2)(c2cccc(-c3cncc(F)c3)c2)N=C1N (stereo not shown) [Example 35] : IC50 is 68 nM

Record COc1ccc(F)c(-c2cccc(C3(c4ccc(S(F)(F)(F)(F)F)cc4)N=C(N)N(C)C3=O)c2)c1 (stereo not shown) [Example 38] . Reported IC50: 71 nM

Notebook: CN1C(=O)C(c2ccc(S(F)(F)(F)(F)F)cc2)(c2cccc(-c3cc(C#N)ccn3)c2)N=C1N (stereo not shown) [Example 42] , IC50 read as 405 nM
